System: human AQP-3 promoter
Assay: Modulation of the human AQP-3 promoter activity (luciferase reporter in stably transfected keratinocytes)
Type: cell-based
Conditions: peptide at 0.5 mg/mL, 16-24 hours; normalized to negative control (carrier = 100%)

substance | Activity of the AQP-3 promoter (%)
Ac-L-Tyr-L-Pro-L-Ala-L-Glu-Gly-Gly-NH2 (Ac-YPAEGG-NH2) [Ac-SEQ ID 23-NH2] | 125
Ac-L-Ser-L-Pro-L-Ala-L-Val-Gly-L-Pro-NH2 (Ac-SPAVGP-NH2) [Ac-SEQ ID 49-NH2] | 116
Ac-L-Ser-L-Pro-L-Ala-Gly-Gly-L-Pro-NH2 (Ac-SPAGGP-NH2) [Ac-SEQ ID 10-NH2] | 135
Ac-L-Ser-L-Pro-L-Ala-L-Glu-Gly-L-His-NH2 (Ac-SPAEGH-NH2) [Ac-SEQ ID 48-NH2] | 117
Ac-L-Ser-L-Val-L-Ala-Gly-Gly-L-Pro-NH2 (Ac-SVAGGP-NH2) [Ac-SEQ ID 13-NH2] | 144
Ac-L-Tyr-L-Pro-L-Ala-Gly-Gly-L-Pro-NH2 (Ac-YPAGGP-NH2) [Ac-SEQ ID 26-NH2] | 114
Ac-L-Ser-L-Pro-L-Ala-L-Val-Gly-L-Gln-NH2 (Ac-SPAVGQ-NH2) [Ac-SEQ ID 39-NH2] | 133
Ac-L-Ser-L-Val-L-Ala-L-Val-Gly-L-Gln-NH2 (Ac-SVAVGQ-NH2) [Ac-SEQ ID 15-NH2] | 129
Ac-L-Ser-L-Val-L-Ala-Gly-Gly-L-Gln-NH2 (Ac-SVAGGQ-NH2) [Ac-SEQ ID 50-NH2] | 115
Ac-L-Tyr-L-Pro-L-Ala-Gly-Gly-Gly-NH2 (Ac-YPAGGG-NH2) [Ac-SEQ ID 25-NH2] | 132
Ac-L-Tyr-L-Pro-L-Ala-L-Glu-Gly-L-Gln-NH2 (Ac-YPAEGQ-NH2) [Ac-SEQ ID 22-NH2] | 135
Ac-L-Ser-L-Val-L-Ala-Gly-Gly-Gly-NH2 (Ac-SVAGGG-NH2) [Ac-SEQ ID 38-NH2] | 156
Ac-L-Tyr-L-Pro-L-Ala-L-Val-Gly-L-His-NH2 (Ac-YPAVGH-NH2) [Ac-SEQ ID 30-NH2] | 121
Ac-L-Ser-L-Pro-L-Ala-L-Glu-Gly-Gly-NH2 (Ac-SPAEGG-NH2) [Ac-SEQ ID 6-NH2] | 124
Ac-L-Ser-L-Val-L-Ala-L-Val-Gly-Gly-NH2 (Ac-SVAVGG-NH2) [Ac-SEQ ID 16-NH2] | 127
Ac-L-Tyr-L-Pro-L-Ala-L-Val-Gly-L-Gln-NH2 (Ac-YPAVGQ-NH2) [Ac-SEQ ID 28-NH2] | 129

----------
System: human AQP-3 promoter
Test: Modulation of the human AQP-3 promoter activity (luciferase reporter in stably transfected keratinocytes)
Type: cell-based
Settings: peptide at 0.5 mg/mL, 16-24 hours; normalized to negative control (carrier = 100%)
experimental.readout: Activity of the AQP-3 promoter (%)

substance | unit | value
Ac-L-Ser-L-Val-L-Ala-L-Glu-Gly-L-His-NH2 (Ac-SVAEGH-NH2) [Ac-SEQ ID 58-NH2] | % | 112
Ac-L-Tyr-L-Val-L-Ala-L-Glu-Gly-Gly-NH2 (Ac-YVAEGG-NH2) [Ac-SEQ ID 56-NH2] | % | 112
Ac-L-Ser-L-Pro-L-Ala-Gly-Gly-L-Gln-NH2 (Ac-SPAGGQ-NH2) [Ac-SEQ ID 8-NH2] | % | 152
Ac-L-Ser-L-Val-L-Ala-Gly-Gly-L-His-NH2 (Ac-SVAGGH-NH2) [Ac-SEQ ID 41-NH2] | % | 124
Ac-L-Tyr-L-Val-L-Ala-Gly-Gly-L-His-NH2 (Ac-YVAGGH-NH2) [Ac-SEQ ID 34-NH2] | % | 136
Ac-L-Tyr-L-Pro-L-Ala-L-Glu-Gly-L-Pro-NH2 (Ac-YPAEGP-NH2) [Ac-SEQ ID 24-NH2] | % | 121
Ac-L-Tyr-L-Val-L-Ala-L-Glu-Gly-L-Pro-NH2 (Ac-YVAEGP-NH2) [Ac-SEQ ID 32-NH2] | % | 135
Ac-L-Ser-L-Val-L-Ala-L-Glu-Gly-L-Gln-NH2 (Ac-SVAEGQ-NH2) [Ac-SEQ ID 12-NH2] | % | 138
Ac-L-Tyr-L-Pro-L-Ala-L-Val-Gly-L-Pro-NH2 (Ac-YPAVGP-NH2) [Ac-SEQ ID 31-NH2] | % | 122
Ac-L-Ser-L-Val-L-Ala-L-Val-Gly-L-Pro-NH2 (Ac-SVAVGP-NH2) [Ac-SEQ ID 17-NH2] | % | 121
Ac-L-Tyr-L-Val-L-Ala-L-Val-Gly-Gly-NH2 (Ac-YVAVGG-NH2) [Ac-SEQ ID 36-NH2] | % | 120
Ac-L-Tyr-L-Val-L-Ala-Gly-Gly-L-Gln-NH2 (Ac-YVAGGQ-NH2) [Ac-SEQ ID 42-NH2] | % | 123
Ac-L-Ser-L-Pro-L-Ala-L-Val-Gly-Gly-NH2 (Ac-SPAVGG-NH2) [Ac-SEQ ID 40-NH2] | % | 126
Ac-L-Tyr-L-Pro-L-Ala-Gly-Gly-L-Gln-NH2 (Ac-YPAGGQ-NH2) [Ac-SEQ ID 43-NH2] | % | 122
Ac-L-Tyr-L-Val-L-Ala-Gly-Gly-Gly-NH2 (Ac-YVAGGG-NH2) [Ac-SEQ ID 33-NH2] | % | 129
Ac-L-Ser-L-Val-L-Ala-L-Glu-Gly-Gly-NH2 (Ac-SVAEGG-NH2) [Ac-SEQ ID 46-NH2] | % | 119
Ac-L-Tyr-L-Val-L-Ala-Gly-Gly-L-Pro-NH2 (Ac-YVAGGP-NH2) [Ac-SEQ ID 35-NH2] | % | 150
Ac-L-Ser-L-Pro-L-Ala-Gly-Gly-L-His-NH2 (Ac-SPAGGH-NH2) [Ac-SEQ ID 45-NH2] | % | 120
Ac-L-Ser-L-Pro-L-Ala-L-Glu-Gly-L-Gln-NH2 (Ac-SPAEGQ-NH2) [Ac-SEQ ID 5-NH2] | % | 121
Ac-L-Tyr-L-Val-L-Ala-L-Glu-Gly-L-His-NH2 (Ac-YVAEGH-NH2) [Ac-SEQ ID 44-NH2] | % | 120
Ac-L-Tyr-L-Pro-L-Ala-L-Val-Gly-Gly-NH2 (Ac-YPAVGG-NH2) [Ac-SEQ ID 29-NH2] | % | 125
